# System: BT-474
# setup.conditions: 72 h
Field: EC50, CellTiter-Glo. Provide a value for each of the molecules that follow.
Dear colleague, please return just the value in nM, with no unit written.

Q. I'd like to know its EC50, CellTiter-Glo. The molecule in question is COc1cc(O)c2c(c1)/C=C/C[C@H](O)[C@H](O)C(=O)/C=C\C[C@H](C)OC2=O [(5Z)-7-Oxozeaenol]
A. 2160

Q. Value lookup for EC50, CellTiter-Glo; key = `N#Cc1ccc(COC[C@H]2O[C@@H](n3c(NCc4ccc(Cl)c(Cl)c4)nc4c(N)ncnc43)[C@H](O)[C@@H]2O)cc1`
A. 857

Q. Item under review: COCC[n+]1c2c(n(Cc3cnccn3)c1C)C(=O)c1ccccc1C2=O [YM155] . Reported EC50, CellTiter-Glo?
A. 4.16

Q. Look up EC50, CellTiter-Glo for this molecule: O=C(Nc1ccncc1)C(=O)c1cn(Cc2ccc(Cl)cc2)c2ccccc12 [Indibulin]
A. 282

---

# Test system: CAL-120
# measurement.description: drug sensitivity score (DSS), CellTox Green (DSS (AUC-based score)); higher = stronger drug effect (viability inhibition or cytotoxicity); extreme values may be limits of the assay
# setup.conditions: incubation time: 72 h
Exercise: state measured drug sensitivity score for each of the compounds provided.

Q. Could you tell me which drug sensitivity score is on file for `Cc1[nH]c2ccccc2c1CCNCc1ccc(/C=C/C(=O)NO)cc1` ?
A. 13.8

Q. Reported drug sensitivity score, compound `COc1cc(O)c2c(c1)/C=C/C[C@H](O)[C@H](O)C(=O)/C=C\C[C@H](C)OC2=O` : ____
A. 0

Q. Which drug sensitivity score is reported for this compound? `CC(C)C[C@@H](C(=O)N[C@H](C(=O)OC1CCCC1)c1ccccc1)[C@H](O)C(=O)NO`
A. 13.6

Q. Request the reported drug sensitivity score associated with `CNC(=O)c1cc(Oc2ccc(NC(=O)Nc3ccc(Cl)c(C(F)(F)F)c3)c(F)c2)ccn1`
A. 0

---

Answer each item with its documented drug sensitivity score.
# Tested on: MDA-MB-453
# measurement.description: drug sensitivity score (DSS), CellTiter-Blue viability (DSS (AUC-based score)); higher = stronger viability inhibition; extreme values may be limits of the assay
# setup.conditions: incubation time: 72 h
Write the value as a bare number.

Q. Please give the measured drug sensitivity score for this compound: CN(C)c1nc(N(C)C)nc(N(C)C)n1 [Altretamine]
A. 2.05

Q. Query: drug sensitivity score; subject: COc1cc(OC2CCN(C)CC2)ccc1Nc1ncc2c(n1)n(C1CCCC1)c(=O)n2C [AZ 3146]
A. 3.31

Q. GET /values?readout=drug sensitivity score&item= C=C1C[C@@H]2[C@H](CC[C@]3(C)C(=O)CC[C@@H]23)[C@@]2(C)C=CC(=O)C=C12 [Exemestane]
A. 1.5

Q. Need drug sensitivity score of `N#Cc1ccc(COC[C@H]2O[C@@H](n3c(NCc4ccc(Cl)c(Cl)c4)nc4c(N)ncnc43)[C@H](O)[C@@H]2O)cc1` , thanks.
A. 0

---

# System: MCF-10A
# setup.conditions: 72 h
property.measured: EC50, CellTiter-Glo (nM)
Form entry: value (nM) — number only.

Q. Return reported EC50, CellTiter-Glo; argument: CCOC(=O)CCNc1cc(N2CCc3ccccc3CC2)nc(-c2ccccn2)n1 [GSK-J4]
A. 9270

Q. For COC(=O)c1ccc2c(c1)NC(=O)/C2=C(\Nc1ccc(N(C)C(=O)CN2CCN(C)CC2)cc1)c1ccccc1 [Nintedanib] , what is its reported EC50, CellTiter-Glo?
A. 584

Q. I would be grateful if you could share the reported EC50, CellTiter-Glo for COc1cc2/c(=N/c3ccc(Br)cc3F)nc[nH]c2cc1OCC1CCN(C)CC1 [Vandetanib] .
A. 150

Q. Given the compound COCC[n+]1c2c(n(Cc3cnccn3)c1C)C(=O)c1ccccc1C2=O [YM155] , what is its reported EC50, CellTiter-Glo?
A. 27.1

---

# System: BT-474
# measurement.description: normalised viability (% of control), CellTiter-Blue; higher = more viable cells (100 = DMSO, 0 = benzethonium chloride kill control)
# setup.conditions: incubation time: 72 h
property.measured: normalised viability (%)
All answers are understood in %, so give the number only.

Q. What value of normalised viability on BT-474 does CO[C@H]1C[C@@H]2CC[C@@H](C)[C@@](O)(O2)C(=O)C(=O)N2CCCC[C@H]2C(=O)O[C@H]([C@H](C)C[C@@H]2CC[C@@H](OP(C)(C)=O)[C@H](OC)C2)CC(=O)[C@H](C)/C=C(\C)[C@@H](O)[C@@H](OC)C(=O)[C@H](C)C[C@H](C)/C=C/C=C/C=C/1C [Ridaforolimus] (0.1 nM) have?
A. 94

Q. Missing value: normalised viability, BT-474, entry O=C(/C=C/c1cccc(S(=O)(=O)Nc2ccccc2)c1)NO [Belinostat] (1 nM) . Fill in?
A. 106

Q. Fill in the recorded normalised viability for this compound, with BT-474 as test system: Cc1ccc(NC(=O)c2ccc(CN3CCN(C)CC3)cc2)cc1Nc1nc(-c2cccnc2)cs1 [Masitinib] (1 nM)
A. 102

Q. API: value(readout=normalised viability, system=BT-474) for record O=C(Nc1cccnc1)N1CCC(Cc2cccc(Oc3ccc(C(F)(F)F)cn3)c2)CC1 [PF-3845] (1 nM)
A. 70.3

Q. # get_value(readout= normalised viability, system= BT-474) for CC(C)C[C@@H](C(=O)N[C@H](C(=O)OC1CCCC1)c1ccccc1)[C@H](O)C(=O)NO [Tosedostat] (1 nM)
A. 98.7

---

# System: MDA-MB-453
# measurement.description: normalised viability (% of control), CellTiter-Blue; higher = more viable cells (about 100 = DMSO control)
# setup.conditions: incubation time: 72 h
property.measured: normalised viability (%)
Give a bare numeral; the unit % is implied.

Q. Name the recorded normalised viability for CN(C)CCOc1ccc(/C(=C(/CCCl)c2ccccc2)c2ccccc2)cc1 [Toremifene] (10000 nM) .
A. 26.5

Q. // normalised viability lookup, key: S=P(N1CC1)(N1CC1)N1CC1 [Thio-TEPA] (100000 nM)
A. 104

Q. Entry Oc1ccc2c(c1)CC[C@H](c1ccccc1)[C@@H]2c1ccc(OCCN2CCCC2)cc1 [Lasofoxifene] (1000 nM) : reported normalised viability = ?
A. 107

Q. Would you mind telling me what normalised viability value was observed for COc1cc(OC2CCN(C)CC2)ccc1Nc1ncc2c(n1)n(C1CCCC1)c(=O)n2C [AZ 3146] (10000 nM) ?
A. 37.4

Q. Item COC(=O)c1ccc2c(c1)NC(=O)/C2=C(\Nc1ccc(N(C)C(=O)CN2CCN(C)CC2)cc1)c1ccccc1 [BIBF 1120] (10000 nM) has what recorded normalised viability?
A. 2.37

Q. For O=P1(N(CCCl)CCCl)NCCCO1 (stereo not given) [Cyclophosphamide] (40000 nM) , what is its reported normalised viability?
A. 117

Q. State the recorded normalised viability for this entry: Cc1cc(Nc2cc(CN3CCOCC3)c3nc(C)c(Cc4ccc(Cl)cc4F)n3n2)n[nH]1 (10000 nM)
A. 36

Q. # get_value(readout='normalised viability', item= COCC[n+]1c2c(n(Cc3cnccn3)c1C)C(=O)c1ccccc1C2=O [YM155] (10000 nM) )
A. 2

Q. Would you kindly share the measured normalised viability for COc1cc2/c(=N/c3ccc(Br)cc3F)nc[nH]c2cc1OCC1CCN(C)CC1 [Vandetanib] (10000 nM) ?
A. 17.4

Q. GET /values?readout=normalised viability&item= Cc1ccc(NC(=O)c2ccc(CN3CCN(C)CC3)cc2)cc1Nc1nc(-c2cccnc2)cs1 [Masitinib] (10000 nM)
A. 24.4

---

Assignment: determine reported normalised response for the given compounds.
# Test system: MCF-10A
# measurement.description: normalised response (% of control), CellTiter-Glo; higher = more viable cells (100 = DMSO, 0 = benzethonium chloride kill control)
# setup.conditions: incubation time: 72 h
The figure you give is taken to be in %; do not add the unit.

Q. Quick one: normalised response of C=C1C[C@@H]2[C@H](CC[C@]3(C)C(=O)CC[C@@H]23)[C@@]2(C)C=CC(=O)C=C12 [Exemestane] (10000 nM) ?
A. 107

Q. Please report the recorded normalised response for O=P1(N(CCCl)CCCl)NCCCO1 (stereo not drawn) [Cyclophosphamide] (40000 nM) .
A. 109

Q. Entry O=C(Nc1ccncc1)C(=O)c1cn(Cc2ccc(Cl)cc2)c2ccccc12 [Indibulin] (10000 nM) has what normalised response?
A. 76.1

Q. What does the data say about its normalised response? Entry: CCc1c2c(nc3ccc(OC(=O)N4CCC(N5CCCCC5)CC4)cc13)-c1cc3c(c(=O)n1C2)COC(=O)[C@]3(O)CC [Irinotecan] (10000 nM)
A. 68.2

Q. Entry under review: COC(=O)c1ccc2c(c1)NC(=O)/C2=C(\Nc1ccc(N(C)C(=O)CN2CCN(C)CC2)cc1)c1ccccc1 [Nintedanib] (10000 nM) . Reported normalised response?
A. 40.1

Q. Given N#Cc1ccc(COC[C@H]2O[C@@H](n3c(NCc4ccc(Cl)c(Cl)c4)nc4c(N)ncnc43)[C@H](O)[C@@H]2O)cc1 (10000 nM) , state its recorded normalised response.
A. 59.2

Q. Which normalised response is reported for this compound? CCn1c(-c2nonc2N)nc2cnc(Oc3cccc(NC(=O)c4ccc(OCCN5CCOCC5)cc4)c3)cc21 (10000 nM)
A. 62.9

Q. What does the record list as normalised response for NC(=O)c1ccc(I)c([N+](=O)[O-])c1 [Iniparib] (10000 nM) ?
A. 76.3
